We begin with a simple list: items and their reported log10 of MIC.
- System: Klebsiella pneumoniae
- Assay summary: Antibacterial activity against extended-spectrum beta-lactamase-producing Klebsiella pneumoniae isolate 12-1
- Format: functional
Parameter: log10 of MIC (log10 of the value in µg/mL)

| Molecule | log10 of MIC |
| --- | --- |
| CO/N=C1\CN(c2nc3c(cc2F)c(=O)c(C(=O)O)cn3C2CC2)CCC1N (configuration not stated) | 0.90 |
| O=C1NC2CCN(c3nc4c(cc3F)c(=O)c(C(=O)O)cn4C3CC3)CC2O1 (configuration not stated) | 2.11 |
| CNC1CCN(c2ccc3c(=O)c(C(=O)O)cn(C4CC4)c3n2)C/C1=N\OC (configuration not stated) | 2.11 |
| CO/N=C1\CN(c2c(F)cc3c(=O)c(C(=O)O)cn4c3c2OC[C@@H]4C)CCC1N (some centres not stated) | -0.30 |
| CNC1CCN(c2c(F)cc3c(=O)c(C(=O)O)cn(C4CC4)c3c2F)C/C1=N\OC (configuration not stated) | 0.90 |
| CCO/N=C1\CN(c2c(F)cc3c(=O)c(C(=O)O)cn(C4CC4)c3c2F)CCC1NC (configuration not stated) | 1.20 |
| CCO/N=C1\CN(c2c(F)cc3c(=O)c(C(=O)O)cn4c3c2OC[C@@H]4C)CCC1NC (some centres not stated) | 0.90 |
| CO/N=C1\CN(c2c(F)cc3c(=O)c(C(=O)O)cn(C4CC4)c3c2OC)CCC1N (configuration not stated) | 0.90 |
| CO/N=C1\CN(c2nc3c(cc2F)c(=O)c(C(=O)O)cn3C2CC2)CC1CN (configuration not stated) | 0.30 |
| CNC1CCN(c2nc3c(cc2F)c(=O)c(C(=O)O)cn3C2CC2)C/C1=N\OC (configuration not stated) | 1.20 |
| CNC1CCN(c2c(F)cc3c(=O)c(C(=O)O)cn(C4CC4)c3c2OC)C/C1=N\OC (configuration not stated) | 1.20 |
| CCO/N=C1\CN(c2c(F)cc3c(=O)c(C(=O)O)cn(C4CC4)c3c2OC)CCC1NC (configuration not stated) | 1.51 |
| CCO/N=C1\CN(c2nc3c(cc2F)c(=O)c(C(=O)O)cn3C2CC2)CCC1NC (configuration not stated) | 1.81 |
| O=C(O)c1cn(C2CC2)c2cc(N3CCNCC3)c(F)cc2c1=O | 0.30 |
| CNC1CCN(c2nc3c(cc2F)c(=O)c(C(=O)O)cn3-c2ccc(F)cc2F)C/C1=N\OC (configuration not stated) | 1.81 |
| CCn1cc(C(=O)O)c(=O)c2cc(F)c(N3CCC(NC)/C(=N/OC)C3)c(F)c21 (configuration not stated) | 1.20 |
| CNC1CCN(c2c(F)cc3c(=O)c(C(=O)O)cn4c3c2OC[C@@H]4C)C/C1=N\OC (some centres not stated) | 1.20 |
